System: 88 urinary tract infection E. coli isolates
Assay type: cell-based, Escherichia coli
Conditions: 88-isolate panel, beta-lactam-resistant subset; single agent
readoutType: Host Range % on Beta-lactam-Resistant Subset (n = 31), Single agent treatment (%)
Could you give me the number in %? Just the number is fine.

Req: Record request: Host Range % on Beta-lactam-Resistant Subset (n = 31), Single agent treatment value, item `CO/N=C(\C(=O)N[C@@H]1C(=O)N2C(C(=O)O)=C(CSc3nc(=O)c(=O)[nH]n3C)CS[C@H]12)c1csc(N)n1`
Resp: 15.1

Req: Thanks! And `C=CC1=C(C(=O)O)N2C(=O)[C@@H](NC(=O)/C(=N\O)c3csc(N)n3)[C@H]2SC1` ?
Resp: 12.9

Req: Thanks! And `CC1=C(C(=O)O)N2C(=O)[C@@H](NC(=O)[C@H](N)c3ccccc3)[C@H]2SC1` ?
Resp: 11.8

Req: Thanks! And `O=C1CN(/N=C/c2ccc([N+](=O)[O-])o2)C(=O)N1` ?
Resp: 90.3

###

System: 88 urinary tract infection E. coli isolates
Format: cell-based, Escherichia coli
Details: 88-isolate panel
Kindly state Host Range % on Beta-lactam-Resistant Subset (n = 31), Single agent treatment for each of the entries shown.
Please answer in the form of a number followed by its unit of measurement.

Req: Find the measured Host Range % on Beta-lactam-Resistant Subset (n = 31), Single agent treatment: item O=C1CN(/N=C/c2ccc([N+](=O)[O-])o2)C(=O)N1 [Nitrofurantoin] , target or system 88 urinary tract infection E. coli isolates.
Resp: 90.3%

Req: Thanks! And CC1=C(C(=O)O)N2C(=O)[C@@H](NC(=O)[C@H](N)c3ccccc3)[C@H]2SC1 [Cephalexin] ?
Resp: 11.8%

Req: Thanks! And C=CC1=C(C(=O)O)N2C(=O)[C@@H](NC(=O)/C(=N\O)c3csc(N)n3)[C@H]2SC1 [Cefdinir] ?
Resp: 12.9%

Req: Thanks! And CO/N=C(\C(=O)N[C@@H]1C(=O)N2C(C(=O)O)=C(CSc3nc(=O)c(=O)[nH]n3C)CS[C@H]12)c1csc(N)n1 [Ceftriaxone] ?
Resp: 15.1%

###

Kindly state Host Range % on all Strains (n = 88), Combination: Antibiotic + LBP-EC01 v.2 for each of the entries shown.
Tested on: 88 urinary tract infection E. coli isolates
Format: cell-based, Escherichia coli
Conditions: 88-isolate panel, all strains; antibiotic combined with LBP-EC01 v.2
Could you give me the number in %? Just the number is fine.

Req: Record request: Host Range % on all Strains (n = 88), Combination: Antibiotic + LBP-EC01 v.2 value, item C=CC1=C(C(=O)O)N2C(=O)[C@@H](NC(=O)/C(=N\O)c3csc(N)n3)[C@H]2SC1 [Cefdinir]
Resp: 87.5

Req: Thanks! And O=C1CN(/N=C/c2ccc([N+](=O)[O-])o2)C(=O)N1 [Nitrofurantoin] ?
Resp: 93.9

Req: Thanks! And CO/N=C(\C(=O)N[C@@H]1C(=O)N2C(C(=O)O)=C(CSc3nc(=O)c(=O)[nH]n3C)CS[C@H]12)c1csc(N)n1 [Ceftriaxone] ?
Resp: 92.4

Req: Thanks! And CC1=C(C(=O)O)N2C(=O)[C@@H](NC(=O)[C@H](N)c3ccccc3)[C@H]2SC1 [Cephalexin] ?
Resp: 87.9
